Provenance of the data: PubChem BioAssay AID1963969

Test system: 817829-284-R-J1-PDC multi-cell spheroid viability;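 further: spheroids exposed to agents for seven days before readout; percent of vehicle DMSO control viability which is 100%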
Test: Anticancer human tumor 817829-284-R-J1-PDC patient-derived colon adenocarcinoma cell line growth inhibition [PI3K]
Settings: second compound 0.00316 µM; first compound 3.16 µM; stronger effect = lower value
quantity: viability, T/C (%)

molecule	assayed_target	quantity	numeric_result
CNC(=O)c1ccc(N2C(=S)N(c3ccc(C#N)c(C(F)(F)F)c3)C(=O)C2(C)C)cc1F + COc1c(OCCCN2CCOCC2)ccc2c3n(c(=NC(=O)c4cnc(N)nc4)nc12)CCN3	817829-284-R-J1-PDC multi-cell spheroid viability	viability, T/C	70.9
CCCS(=O)(=O)Nc1ccc(F)c(C(=O)c2c[nH]c3ncc(-c4ccc(Cl)cc4)cc23)c1F + CC(Nc1ccc2c(c1)OCCn1cc(N3C(=O)OCC3C(F)F)nc1-2)C(N)=O	817829-284-R-J1-PDC multi-cell spheroid viability	viability, T/C	49.6
CC(C)NCC(C(=O)N1CCN(c2ncnc3c2C(C)CC3O)CC1)c1ccc(Cl)cc1 (stereo not given) + COc1c(OCCCN2CCOCC2)ccc2c3n(c(=NC(=O)c4cnc(N)nc4)nc12)CCN3	817829-284-R-J1-PDC multi-cell spheroid viability	viability, T/C	23
CNC(=O)c1ccc(N2C(=S)N(c3ccc(C#N)c(C(F)(F)F)c3)C(=O)C2(C)C)cc1F + CC(Nc1ccc2c(c1)OCCn1cc(N3C(=O)OCC3C(F)F)nc1-2)C(N)=O	817829-284-R-J1-PDC multi-cell spheroid viability	viability, T/C	61.9
C#Cc1c(F)ccc2cc(O)cc(-c3ncc4c(N5CC6CCC(C5)N6)nc(OCC56CCCN5CC(F)C6)nc4c3F)c12 (stereo not given) + COc1c(OCCCN2CCOCC2)ccc2c3n(c(=NC(=O)c4cnc(N)nc4)nc12)CCN3	817829-284-R-J1-PDC multi-cell spheroid viability	viability, T/C	77
